Test: Powder dissolution, USP/NF paddle method with HPLC analysis
Assay type: physicochemical
Conditions: 5 min; 500 mg in 900 mL water, 37 °C, 75 rpm; replicate #2; trihydrate
parameter: Amoxicillin released in solution #2 (%)

[[record]]
compound = "CC1(C)S[C@@H]2[C@H](NC(=O)[C@H](N)c3ccc(O)cc3)C(=O)N2[C@H]1C(=O)O.O.O.O [entry 4, amoxicillin trihydrate]"
parameter = "Amoxicillin released in solution #2"
measured_result = 82.78

[[record]]
compound = "CC1(C)S[C@@H]2[C@H](NC(=O)[C@H](N)c3ccc(O)cc3)C(=O)N2[C@H]1C(=O)O.O.O.O [entry 6, amoxicillin trihydrate]"
parameter = "Amoxicillin released in solution #2"
measured_result = 78.46

[[record]]
compound = "CC1(C)S[C@@H]2[C@H](NC(=O)[C@H](N)c3ccc(O)cc3)C(=O)N2[C@H]1C(=O)O.O.O.O [entry 1, amoxicillin trihydrate]"
parameter = "Amoxicillin released in solution #2"
measured_result = 99.54

[[record]]
compound = "CC1(C)S[C@@H]2[C@H](NC(=O)[C@H](N)c3ccc(O)cc3)C(=O)N2[C@H]1C(=O)O.O.O.O [entry 5, amoxicillin trihydrate]"
parameter = "Amoxicillin released in solution #2"
measured_result = 82.77

[[record]]
compound = "CC1(C)S[C@@H]2[C@H](NC(=O)[C@H](N)c3ccc(O)cc3)C(=O)N2[C@H]1C(=O)O.O.O.O [entry 3, amoxicillin trihydrate]"
parameter = "Amoxicillin released in solution #2"
measured_result = 100.87

[[record]]
compound = "CC1(C)S[C@@H]2[C@H](NC(=O)[C@H](N)c3ccc(O)cc3)C(=O)N2[C@H]1C(=O)O.O.O.O [entry 2, amoxicillin trihydrate]"
parameter = "Amoxicillin released in solution #2"
measured_result = 99.79

